Each item that follows carries a reported relative viability.
System: NCI-H1792
METHOD_NOTES: relative viability (nuclei count vs DMSO), 5 days (fraction); higher = more cells survive
PROTOCOL_CONDITIONS: first compound 1.265 µM

# COMPOUND, relative viability
rows = [
    ("O=C(O)c1ccc(-c2c[nH]c3ncc(-c4ccccc4)cc23)cc1C1CCCC1 + Nc1nc2[nH]cc(CCc3ccc(C(=O)N[C@@H](CCC(=O)O)C(=O)O)cc3)c2c(=O)[nH]1 [Pemetrexed] (partner 0.2 µM)", 0.734),
    ("O=C(O)c1ccc(-c2c[nH]c3ncc(-c4ccccc4)cc23)cc1C1CCCC1 + CC(=O)c1c(C)c2cnc(Nc3ccc(N4CCNCC4)cn3)nc2n(C2CCCC2)c1=O [Palbociclib] (partner 0.5 µM)", 0.691),
    ("O=C(O)c1ccc(-c2c[nH]c3ncc(-c4ccccc4)cc23)cc1C1CCCC1 + CS(=O)(=O)N1CCN(Cc2cc3nc(-c4cccc5[nH]ncc45)nc(N4CCOCC4)c3s2)CC1 [Pictilisib] (partner 1 µM)", 0.27),
    ("O=C(O)c1ccc(-c2c[nH]c3ncc(-c4ccccc4)cc23)cc1C1CCCC1 + CC(=O)Nc1cccc(-n2c(=O)n(C3CC3)c(=O)c3c(Nc4ccc(I)cc4F)n(C)c(=O)c(C)c32)c1 [Trametinib] (partner 0.02 µM)", 0.392),
]

----------
Tested on: LCLC-97TM1
METHOD_NOTES: relative viability (nuclei count vs DMSO), 5 days (fraction); higher = more cells survive
PROTOCOL_CONDITIONS: first compound 1.265 µM
Values of relative viability strictly less than 0.2 map to true (1), and values of at least 0.2 map to false (0).

# COMPOUND, GROUP
measured = [
    ("O=C(O)c1ccc(-c2c[nH]c3ncc(-c4ccccc4)cc23)cc1C1CCCC1 + Cc1nc(Nc2ncc(C(=O)Nc3c(C)cccc3Cl)s2)cc(N2CCN(CCO)CC2)n1 [Dasatinib] (partner 0.075 µM)", "false (0)"),
    ("O=C(O)c1ccc(-c2c[nH]c3ncc(-c4ccccc4)cc23)cc1C1CCCC1 + CC(=O)Nc1cccc(-n2c(=O)n(C3CC3)c(=O)c3c(Nc4ccc(I)cc4F)n(C)c(=O)c(C)c32)c1 [Trametinib] (partner 0.02 µM)", "false (0)"),
    ("O=C(O)c1ccc(-c2c[nH]c3ncc(-c4ccccc4)cc23)cc1C1CCCC1 + Cc1cc(Nc2cc(N3CCN(C)CC3)nc(Sc3ccc(NC(=O)C4CC4)cc3)n2)n[nH]1 [Tozasertib] (partner 0.1 µM)", "true (1)"),
    ("O=C(O)c1ccc(-c2c[nH]c3ncc(-c4ccccc4)cc23)cc1C1CCCC1 + Nc1nc2[nH]cc(CCc3ccc(C(=O)N[C@@H](CCC(=O)O)C(=O)O)cc3)c2c(=O)[nH]1 [Pemetrexed] (partner 0.2 µM)", "true (1)"),
]

----------
Test system: HARA
METHOD_NOTES: relative viability (nuclei count vs DMSO), 5 days (fraction); higher = more cells survive
PROTOCOL_CONDITIONS: first compound 0.5 µM
Threshold-based label: relative viability under 0.4 gives t, relative viability not under 0.4 gives f.

# COMPOUND, GROUP
data = [
    ("CC1(C)CCC(c2ccc(Cl)cc2)=C(CN2CCN(c3ccc(C(=O)NS(=O)(=O)c4ccc(N[C@H](CCN5CCOCC5)CSc5ccccc5)c(S(=O)(=O)C(F)(F)F)c4)cc3)CC2)C1 [Navitoclax] + CC(=O)Nc1cccc(-n2c(=O)n(C3CC3)c(=O)c3c(Nc4ccc(I)cc4F)n(C)c(=O)c(C)c32)c1 [Trametinib] (partner 0.02 µM)", "f"),
    ("CC1(C)CCC(c2ccc(Cl)cc2)=C(CN2CCN(c3ccc(C(=O)NS(=O)(=O)c4ccc(N[C@H](CCN5CCOCC5)CSc5ccccc5)c(S(=O)(=O)C(F)(F)F)c4)cc3)CC2)C1 [Navitoclax] + COc1cccc2cc(-c3nc([C@H]4CC[C@H](C(=O)O)CC4)n4ncnc(N)c34)[nH]c12 [OSI-027] (partner 0.5 µM)", "f"),
    ("CC1(C)CCC(c2ccc(Cl)cc2)=C(CN2CCN(c3ccc(C(=O)NS(=O)(=O)c4ccc(N[C@H](CCN5CCOCC5)CSc5ccccc5)c(S(=O)(=O)C(F)(F)F)c4)cc3)CC2)C1 [Navitoclax] + CC(=O)c1c(C)c2cnc(Nc3ccc(N4CCNCC4)cn3)nc2n(C2CCCC2)c1=O [Palbociclib] (partner 0.5 µM)", "t"),
    ("CC1(C)CCC(c2ccc(Cl)cc2)=C(CN2CCN(c3ccc(C(=O)NS(=O)(=O)c4ccc(N[C@H](CCN5CCOCC5)CSc5ccccc5)c(S(=O)(=O)C(F)(F)F)c4)cc3)CC2)C1 [Navitoclax] + O=C(c1cc(Cc2n[nH]c(=O)c3ccccc23)ccc1F)N1CCN(C(=O)C2CC2)CC1 [Olaparib] (partner 8 µM)", "f"),
    ("CC1(C)CCC(c2ccc(Cl)cc2)=C(CN2CCN(c3ccc(C(=O)NS(=O)(=O)c4ccc(N[C@H](CCN5CCOCC5)CSc5ccccc5)c(S(=O)(=O)C(F)(F)F)c4)cc3)CC2)C1 [Navitoclax] + CS(=O)(=O)N1CCN(Cc2cc3nc(-c4cccc5[nH]ncc45)nc(N4CCOCC4)c3s2)CC1 [Pictilisib] (partner 1 µM)", "t"),
    ("CC1(C)CCC(c2ccc(Cl)cc2)=C(CN2CCN(c3ccc(C(=O)NS(=O)(=O)c4ccc(N[C@H](CCN5CCOCC5)CSc5ccccc5)c(S(=O)(=O)C(F)(F)F)c4)cc3)CC2)C1 [Navitoclax] + Cc1nc(Nc2ncc(C(=O)Nc3c(C)cccc3Cl)s2)cc(N2CCN(CCO)CC2)n1 [Dasatinib] (partner 0.075 µM)", "t"),
    ("CC1(C)CCC(c2ccc(Cl)cc2)=C(CN2CCN(c3ccc(C(=O)NS(=O)(=O)c4ccc(N[C@H](CCN5CCOCC5)CSc5ccccc5)c(S(=O)(=O)C(F)(F)F)c4)cc3)CC2)C1 [Navitoclax] + Cc1cc(Nc2cc(N3CCN(C)CC3)nc(Sc3ccc(NC(=O)C4CC4)cc3)n2)n[nH]1 [Tozasertib] (partner 0.1 µM)", "t"),
]
